Reported values of log10 solubility for individual entries
Experiment: Solubility evaluation in aqueous buffer
Assay type: physicochemical
Conditions: aqueous buffer, 25 °C, pH 4, aqueous buffer, thermodynamic from solid, aqueous buffer pH 4, 25° C., about 24 hours equilibration; read-out: Solubility (mg/mL) at 25° C. pH 4
Structures can show the parent of a compound that is named as a salt.
log10 solubility, mg/mL

Q: Give its log10 solubility value. Item: Cc1c(-c2[nH]c3ccc(C4CCN(CC(N)=O)CC4)cc3c2C(C)C)cn2nc[n+](COP(=O)(O)O)c2c1C (single isomer, unassigned) [Example 8, trifluoroacetate]
Result: -1.52

Q: Give its log10 solubility value. Item: Cc1c(-c2c(C(C)C)c3cc(C4CCN(CC(N)=O)CC4)ccc3n2C(=O)CCCOP(=O)(O)O)cn2ncnc2c1C [Example 10]
Result: -1.00

Q: Give its log10 solubility value. Item: Cc1c(-c2[nH]c3ccc(C4CCN(CC(N)=O)CC4)cc3c2C(C)C)cn2ncnc2c1C [Compound A, reference compound]
Result: -1.30

Q: Give its log10 solubility value. Item: Cc1c(-c2c(C(C)C)c3cc(C4CCN(CC(N)=O)CC4)ccc3n2C(=O)OC[C@@H]2CCCN2C(=O)OCOP(=O)(O)O)cn2ncnc2c1C [Example 4]
Result: -0.04

Q: Give its log10 solubility value. Item: Cc1c(-c2c(C(C)C)c3cc(C4CCN(CC(N)=O)CC4)ccc3n2SC[C@H](N)C(=O)O)cn2ncnc2c1C [Example 11]
Result: -2.15
